assay: Pharmacokinetics in dog; format: in vivo; conditions: plasma, male dogs, single 2.5 mg/kg IV bolus
measurement-type: clearance

Challenge: Could you share which clearance value was measured for CN(C)CC(c1ccc(O)cc1)C1(O)CCC(O)CC1 (stereo not shown) ?
Response given: ~7 mL/min/kg

* * *

test: Pharmacokinetics in dog; format: in vivo; settings: plasma, male dogs, single 2.5 mg/kg IV bolus, read-out: apparent terminal half-life (t1/2) (converted)
measurement-type: half-life (h)
Numbers only, in h.

Challenge: Could you share which half-life value was measured for CN(C)CC(c1ccc(O)cc1)C1(O)CCC(O)CC1 (stereo not shown) ?
Response given: 5.6

* * *

assay: Pharmacokinetics in dog; format: in vivo; settings: plasma, male dogs, single oral dose of 7.5 mg/kg, read-out: terminal oral half-life (converted)
measurement-type: half-life (h)
Give bare numbers, in h.

Challenge: Could you share which half-life value was measured for CN(C)CC(c1ccc(O)cc1)C1(O)CCC(O)CC1 (stereo not shown) ?
Response given: 6
